Record form. Attribute: Kd. Fill in for each entry.
# experimental_target: T1, EsCas13d, nuclease-dead (Eubacterium siraeum, UniProt B0MS50, R295A;H300A;R849A;H854A)
# T1 sequence: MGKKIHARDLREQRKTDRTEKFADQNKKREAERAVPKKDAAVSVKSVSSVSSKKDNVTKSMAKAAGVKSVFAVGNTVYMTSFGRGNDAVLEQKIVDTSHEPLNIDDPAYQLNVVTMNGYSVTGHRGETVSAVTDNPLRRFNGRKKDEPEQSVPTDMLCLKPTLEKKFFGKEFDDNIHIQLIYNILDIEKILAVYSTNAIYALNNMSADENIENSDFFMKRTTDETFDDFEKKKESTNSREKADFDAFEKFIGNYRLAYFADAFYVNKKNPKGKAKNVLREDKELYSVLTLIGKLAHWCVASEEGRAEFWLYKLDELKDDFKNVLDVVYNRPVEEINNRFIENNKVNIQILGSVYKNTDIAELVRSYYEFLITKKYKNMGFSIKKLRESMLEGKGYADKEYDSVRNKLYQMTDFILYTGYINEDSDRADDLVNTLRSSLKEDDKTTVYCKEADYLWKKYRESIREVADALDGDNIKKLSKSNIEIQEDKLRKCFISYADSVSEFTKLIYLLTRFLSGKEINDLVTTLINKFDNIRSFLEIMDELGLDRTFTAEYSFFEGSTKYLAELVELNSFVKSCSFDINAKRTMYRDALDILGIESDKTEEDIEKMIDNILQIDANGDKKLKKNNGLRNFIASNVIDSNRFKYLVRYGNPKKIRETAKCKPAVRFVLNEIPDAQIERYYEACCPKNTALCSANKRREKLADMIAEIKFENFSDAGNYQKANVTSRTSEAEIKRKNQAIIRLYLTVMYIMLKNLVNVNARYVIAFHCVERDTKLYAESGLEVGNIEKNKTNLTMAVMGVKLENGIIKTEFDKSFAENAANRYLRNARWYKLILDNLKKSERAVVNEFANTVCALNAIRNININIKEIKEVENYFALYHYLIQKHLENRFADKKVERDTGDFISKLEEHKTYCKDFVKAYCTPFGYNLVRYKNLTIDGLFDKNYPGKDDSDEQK
# procedure_details: crRNA (strand 1, pre-loaded); Mg2+; 40 mM Tris-HCl pH 7.5, 150 mM NaCl, 6 mM MgCl2, 1 mM DTT, 0.1% Tween-20, 0.2 mg/ml BSA; 25 C; 10 min per concentration, then washed
# measurement_conditions: tags: His6-TwinStrep-SUMO cleaved; N-terminal SNAP kept (SNAP-Surface 488); label: 3' end held by stalled T7 RNA polymerase
Numbers only, in nM.

Recorded results for 5 binders are shown here.
>  <binder>
target 1 insA 3' of 22,insA 3' of 13 (mixed) RNA 1: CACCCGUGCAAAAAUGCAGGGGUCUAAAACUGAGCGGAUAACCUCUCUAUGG RNA 2: GGGAAUGGAUCCACAUCUACGAAUUCGUACACAUAGAGAGAGUUAUCCGCUCACCGAGAUCGGAAGAGCACACGU

>  <value_units>
nM

>  <Kd>
6

$$$$
>  <binder>
target 1 insC 3' of 15,insG 3' of 3 (mixed) RNA 1: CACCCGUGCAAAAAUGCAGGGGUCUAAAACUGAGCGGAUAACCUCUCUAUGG RNA 2: GGGAAUGGAUCCACAUCUACGAAUUCGUACCAUAGAGCAGGUUAUCCGCUGCACCGAGAUCGGAAGAGCACACGU

>  <value_units>
nM

>  <Kd>
9.32

$$$$
>  <binder>
target 2 MT 5'PFS GGG 3'PFS CUC (mixed) RNA 1: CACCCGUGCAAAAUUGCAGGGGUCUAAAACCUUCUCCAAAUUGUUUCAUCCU RNA 2: GGGAAUGGAUCCACAUCUACGAAUUCGGGAGGAUGAAACAAUUUGGAGAAGCUCAGAUCGGAAGAGCACACGU

>  <value_units>
nM

>  <Kd>
15.5

$$$$
>  <binder>
target 1 MT 5'PFS GAC 3'PFS ACG (mixed) RNA 1: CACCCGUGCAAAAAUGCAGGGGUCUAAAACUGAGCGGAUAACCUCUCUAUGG RNA 2: GGGAAUGGAUCCACAUCUACGAAUUCGACCCAUAGAGAGGUUAUCCGCUCAACGAGAUCGGAAGAGCACACGU

>  <value_units>
nM

>  <Kd>
16.7

$$$$
>  <binder>
target 2 MT 5'PFS AUG 3'PFS AUC (mixed) RNA 1: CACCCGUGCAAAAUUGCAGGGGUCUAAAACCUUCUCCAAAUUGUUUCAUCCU RNA 2: GGGAAUGGAUCCACAUCUACGAAUUCAUGAGGAUGAAACAAUUUGGAGAAGAUCAGAUCGGAAGAGCACACGU

>  <value_units>
nM

>  <Kd>
9.3

$$$$

Dear colleague, could you send me Kd for each of the items below? Thanks.
1. target 1 MT 5'PFS GCC 3'PFS CUU (mixed) RNA 1: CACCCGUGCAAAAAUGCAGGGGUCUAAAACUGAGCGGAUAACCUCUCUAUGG RNA 2: GGGAAUGGAUCCACAUCUACGAAUUCGCCCCAUAGAGAGGUUAUCCGCUCACUUAGAUCGGAAGAGCACACGU
2. target 1 insC 3' of 19,insU 3' of 6 (mixed) RNA 1: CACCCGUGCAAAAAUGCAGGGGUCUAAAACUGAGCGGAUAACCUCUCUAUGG RNA 2: GGGAAUGGAUCCACAUCUACGAAUUCGUACCAUCAGAGAGGUUAUCCUGCUCACCGAGAUCGGAAGAGCACACGU
3. target 2 MT 5'PFS GAC 3'PFS AUC (mixed) RNA 1: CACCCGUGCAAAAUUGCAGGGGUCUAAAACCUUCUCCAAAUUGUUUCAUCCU RNA 2: GGGAAUGGAUCCACAUCUACGAAUUCGACAGGAUGAAACAAUUUGGAGAAGAUCAGAUCGGAAGAGCACACGU
4. target 3 C6G,U7C (mixed) RNA 1: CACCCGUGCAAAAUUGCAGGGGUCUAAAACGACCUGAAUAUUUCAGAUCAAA RNA 2: GGGAAUGGAUCCACAUCUACGAAUUCGUUUUUGAUCUGAAAUAUCGAGGUCUGCAGAUCGGAAGAGCACACGU
5. target 1 MT 5'PFS GCC 3'PFS CGU (mixed) RNA 1: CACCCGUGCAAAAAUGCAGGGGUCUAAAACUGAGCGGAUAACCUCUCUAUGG RNA 2: GGGAAUGGAUCCACAUCUACGAAUUCGCCCCAUAGAGAGGUUAUCCGCUCACGUAGAUCGGAAGAGCACACGU
6. target 2 MT 5'PFS CUC 3'PFS CCA (mixed) RNA 1: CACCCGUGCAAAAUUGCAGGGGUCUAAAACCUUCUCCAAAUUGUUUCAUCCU RNA 2: GGGAAUGGAUCCACAUCUACGAAUUCCUCAGGAUGAAACAAUUUGGAGAAGCCAAGAUCGGAAGAGCACACGU

15.6
46.6
13.5
60.5
10.1
4.8

Dear colleague, could you send me Kd for each of the items below? Thanks.
1. target 1 C7A,A20C (mixed) RNA 1: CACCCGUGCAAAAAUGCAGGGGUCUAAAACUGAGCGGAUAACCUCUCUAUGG RNA 2: GGGAAUGGAUCCACAUCUACGAAUUCGUACCCUAGAGAGGUUAUACGCUCACCGAGAUCGGAAGAGCACACGU
2. target 2 MT 5'PFS GAG 3'PFS UAU (mixed) RNA 1: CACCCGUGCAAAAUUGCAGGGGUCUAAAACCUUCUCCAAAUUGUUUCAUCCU RNA 2: GGGAAUGGAUCCACAUCUACGAAUUCGAGAGGAUGAAACAAUUUGGAGAAGUAUAGAUCGGAAGAGCACACGU
3. target 1 MT 5'PFS AGA 3'PFS CGC (mixed) RNA 1: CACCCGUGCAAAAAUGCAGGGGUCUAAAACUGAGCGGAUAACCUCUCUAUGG RNA 2: GGGAAUGGAUCCACAUCUACGAAUUCAGACCAUAGAGAGGUUAUCCGCUCACGCAGAUCGGAAGAGCACACGU

[61, 5.6, 37]

# credit: paper PMC10786891
